- System: A549/ATCC NSCLC
- Protocol Text: NCI-60 one-dose screen, 48 h (100 = growth as untreated, 0 = no growth, -100 = all killed)
- Measurement Parameters: 10 µM unless noted
About 83,000 compounds went through this panel and 20% of them were active in at least one assay; those are over-represented in the sample as a whole.
Recorded Metric: growth (%)
Could you give me the number in %? Just the number is fine.

NC(CCCC(N)C(=O)c1ccccc1)C(=O)O (stereo not given) yielded growth of 92.8

Noted for COc1cccc(/C=N/C(=S)NC2(C)C3CCC(C3)C2(C)C)c1O (stereo not given) : its growth reads 74.7

Entry CC(=O)N1N=C2N(Cc3ccccc3)C(=O)c3c(sc4c3CCCC4)N2C1c1cn(-c2ccccc2)nc1-c1ccc(Cl)cc1 (stereo not given) — recorded growth = 95.9

Briefly, growth measured for Cc1[nH]c2ccc(F)cc2c1CCNC(=O)C1CCN(C(=O)c2ccc(-c3ccccc3)cc2)CC1 : 39.1

The compound listed as COc1ccc(OC)c(NCC(=O)n2nc(/C=C\c3ccc(O)c(OC)c3)cc2/C=C\c2ccc(O)c(OC)c2)c1 shows growth equal to 21.4

// growth value for COc1ccc(-c2coc3c(CO)c(O)ccc3c2=O)cc1 : 90.5

Briefly, growth measured for O=C(NCCNc1nccc(-c2c(-c3cccc(O)c3)nc3sccn23)n1)Nc1cc(C(F)(F)F)cc(C(F)(F)F)c1 : 57.7

Please fill in: growth reported for O=C1C(Cl)=C(Nc2ccccc2)C(=O)C(Cl)=C1Nc1ccccc1 = 109

Query C[C@H]1C=C(C[C@@H](O)CC#CC#CCCCCC[C@@H](O)[C@H]2CCC(=O)O2)C(=O)O1 yields growth of 111

For this compound ( CC(=O)Nc1ccc(OC(=O)c2ccccc2O)cc1 ), measured growth is 102

growth recorded for this compound, CC(=O)Cc1cccnc1 , is 101

So, COc1ccc(CNc2nc3ccccc3c3c(=O)c4ccccc4sc23)cc1OC ? Its growth was 61.6

For Clc1ccc2c(NCCNc3nc(Cl)nc4ccccc34)ccnc2c1 the compound record lists growth as -88

growth for O=C(c1ccccc1)[C@H]1[C@@H]2CCCN2[C@]2(C(=O)Nc3ccc(F)cc32)[C@]12C(=O)Nc1ccccc12 is 75.2

// recorded growth for CS(=O)(=O)Nc1cccc(-c2ccc3ncnc(Nc4cncc(Cl)c4)c3c2)c1 : 30.5

Summary for this compound, Nc1ccc(S(=O)(=O)Nc2cc(I)cc(I)c2)cc1 : growth is 112

Per the record, CCC1CN2C(=N1)c1ccccc1-c1cc(Cl)ccc12 (stereo not given) has growth of -21.7

Sample C#CC(=O)/C=C/CCCCCCC#CC(=O)CCC(=O)C#CCCCCCC/C=C/C(=O)C#C ; growth observed: 87.8

GET /value?item= Nc1ncc(-c2ccc3ncnc(Nc4ccc(F)c(Cl)c4)c3c2)cn1 &field=growth returns 34.6

compound COc1ccccc1S(=O)(=O)Nc1ccc2c3c(cc(-c4cnn(C)c4)nc13)C(=O)N2C , growth observed: 38.6

Memo: COc1cc(NC(=O)c2cc(OC)c3ccn(C)c3c2)cc2c1C[C@]1(C)CC[C@@H](O)C(C)(C)[C@H]1O2 , reported growth: 63.6

So for C[C@@H]1CC2C3C[C@H](F)C4=CC(=O)C=C[C@]4(C)[C@@]3(F)[C@@H](O)C[C@]2(C)[C@@]1(O)C(=O)CO (stereo not given in full) , the logged growth turned out to be 68

Per the records, this compound ( COc1ccccc1P(c1ccccc1OC)c1ccccc1OC ) has growth equal to 82.2

For record COc1cc(-c2nc3ccccc3s2)ccc1OCc1nc2n(n1)S(=O)(=O)c1ccccc1N2C the listed growth is 91.1

// sample CC1CCC(C(C)C)C(NN)C1 (stereo not given) , its growth was 80.6

The recorded growth for entry COc1ccc(CCNC=O)cc1OC equals 107

Lab book: growth of COc1cc(/C=C/C(=O)c2c(C)[n+]([O-])c3ccccc3[n+]2[O-])ccc1O noted as 103

The value of growth measured for the compound CCCOC(=O)c1ccc([N+](=O)[O-])o1 turned out to be 101

Cc1ccc[n+](CC(=O)c2cccc3ccccc23)c1 yielded growth of 111

growth for Nc1nc(Cl)cc(NCc2ccc(CNc3cc(Cl)nc(N)n3)cc2)n1 is 87.2

Reported growth of O=C(Nc1ccc(-n2ccc3c(NC(=O)c4ccccc4)ncnc32)cc1)Nc1ccc(Cl)c(Cl)c1 : -44.5

Form: compound = COc1ccccc1S(=O)(=O)Nc1ccc2c3c(cc(-c4ccoc4)nc13)C(=O)N2C ; growth = 66.2

The recorded growth for entry CC(C(C(=O)N1CCCCC1)N1CCCCC1)N1CCCCC1 (stereo not given) equals 94

Quick note, growth for O=C(Nc1ccc(-n2cc(-c3ccncc3)c(-c3ccc(O)c(Cl)c3)n2)cc1)c1ccc(Cl)c(C(F)(F)F)c1 landed at 28.4

Lab book: growth of O=C(CSc1nnc(-c2ccccc2)o1)Nc1ccc(C(=O)/C=C/c2ccccc2)cc1 noted as 60.3

Sure, the documented growth for O=C(Nc1ccc(-n2ccc3c(NC(=O)c4ccccc4)nccc32)cc1)Nc1ccc(Cl)c(Cl)c1 is -75.8

Please fill in: growth reported for CC1(C)N=C(N)N=C(N)N1c1cccc(CCCCc2ccccc2)c1 = -6.95

Memo: CCc1c(C)c2cc3nc(NCc4ccccc4)oc3c(C)c2oc1=O , reported growth: 78.6

According to the records, this compound COc1cc(/C=C/C(=O)c2c(C)n([O-])c3cc(C)c(C)cc3[n+]2=O)cc(OC)c1OC displays growth of 65.9

growth in this record for Cc1cc(O[C@@H]2O[C@@H](C)[C@H](O)[C@@H](O)[C@H]2O)c2c3c(c(O[C@@H]4O[C@@H](C)[C@H](O)[C@@H](O)[C@H]4O)cc2c1)C(=O)c1c(O)cccc1C3=O : 76.8
